Where do the numbers come from? From paper PMC9268553.

Listing of entries alongside the reported pKi.
- measured.on: bovine thrombin (Bos taurus, UniProt P00735)
Lab note: report pKi as minus log10 of the concentration in molar units, number only.

The examples below pair each entry with its known result.
> print(dat)
                                   compound  test.result
1  COc1ccc(CCOc2cccc(NC(=O)CC(=O)Nc3cccc(C(=N)N)c3)c2)cc1 [Compound 20b]         5.18
2  N=C(N)c1ccc(NC(=O)CC(=O)NCCCCc2ccccc2)cc1 [Compound 18e]         5.26
3  N=C(N)c1cccc(NC(=O)CC(=O)NCc2ccc(-c3ccc(F)cc3F)cc2)c1 [Compound 19h]         4.79

Ask: Please give the measured pKi for this compound: N=C(N)c1ccc(NC(=O)CC(=O)NCCCc2ccccc2)cc1 [Compound 18d]
Reply: 4.59
